Attribution: patent US12059422B2

- MEASURED TARGET: PI3K delta (Homo sapiens, UniProt O00329)
- Construct: purchased Millipore, Billerica, MA, USA
- Sequence (O00329 whole entry, species assumed, one chain of several): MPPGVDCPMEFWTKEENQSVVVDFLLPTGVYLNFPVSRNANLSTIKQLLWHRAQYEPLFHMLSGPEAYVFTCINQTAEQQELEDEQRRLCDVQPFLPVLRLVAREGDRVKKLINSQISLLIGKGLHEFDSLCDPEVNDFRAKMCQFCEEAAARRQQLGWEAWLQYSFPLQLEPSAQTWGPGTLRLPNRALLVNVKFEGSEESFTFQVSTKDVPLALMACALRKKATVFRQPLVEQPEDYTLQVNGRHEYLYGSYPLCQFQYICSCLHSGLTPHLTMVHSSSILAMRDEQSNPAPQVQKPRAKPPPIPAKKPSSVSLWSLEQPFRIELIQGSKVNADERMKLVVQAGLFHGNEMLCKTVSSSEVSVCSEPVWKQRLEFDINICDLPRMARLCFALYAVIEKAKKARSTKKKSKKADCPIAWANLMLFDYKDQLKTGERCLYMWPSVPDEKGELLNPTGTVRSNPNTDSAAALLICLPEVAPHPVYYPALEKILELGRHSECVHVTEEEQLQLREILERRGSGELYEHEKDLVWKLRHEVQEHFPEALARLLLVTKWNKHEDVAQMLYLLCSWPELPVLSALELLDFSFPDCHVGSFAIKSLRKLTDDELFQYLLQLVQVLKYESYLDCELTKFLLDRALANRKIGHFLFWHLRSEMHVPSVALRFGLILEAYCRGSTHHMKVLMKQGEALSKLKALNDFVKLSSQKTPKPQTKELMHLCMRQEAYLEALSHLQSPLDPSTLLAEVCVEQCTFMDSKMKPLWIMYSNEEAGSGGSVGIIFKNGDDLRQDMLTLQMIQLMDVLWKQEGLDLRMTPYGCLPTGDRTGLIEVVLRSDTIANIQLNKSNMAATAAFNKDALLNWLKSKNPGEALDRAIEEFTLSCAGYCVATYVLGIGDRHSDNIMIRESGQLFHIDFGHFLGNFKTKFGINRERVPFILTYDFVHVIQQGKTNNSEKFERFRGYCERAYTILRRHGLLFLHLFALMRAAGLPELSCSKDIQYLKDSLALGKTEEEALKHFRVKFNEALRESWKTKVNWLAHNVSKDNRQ
- ASSAY METHOD TEXT: Luciferase-based luminescence assay (KinaseGlo), PI3K delta enzymatic activity
- Format: biochemical
- MEASUREMENT SETUP: ratio of enzymatic IC50 values, Table 1
READOUT NAME: β/δ ratio

Look over these answered cases.
# COMPOUND, MEASURED TARGET, β/δ ratio
rows = [
    ("Cn1nccc1-c1ccccc1CC(C)(C)Nc1nc(N2CCOCC2)nc(-n2c(C(F)F)nc3ccccc32)n1", "PI3K delta (Homo sapiens, UniProt O00329)", "D’"),
    ("CC(C)N1CCC(c2ccccc2CC(C)(C)Nc2nc(N3CCOCC3)nc(-n3c(C(F)F)nc4ccccc43)n2)CC1", "PI3K delta (Homo sapiens, UniProt O00329)", "A’"),
    ("CC(C)(Cc1c(F)cccc1F)Nc1nc(N2CCOCC2)nc(-n2c(C(F)F)nc3ccccc32)n1", "PI3K delta (Homo sapiens, UniProt O00329)", "B’"),
    ("CC(C)(Cc1ccccc1C1CCN(S(C)(=O)=O)CC1)Nc1nc(N2CCOCC2)nc(-n2c(C(F)F)nc3ccccc32)n1", "PI3K delta (Homo sapiens, UniProt O00329)", "D’"),
    ("CC(C)(Cc1ccc(F)cc1)Nc1nc(N2CCOCC2)nc(-n2c(C(F)F)nc3ccccc32)n1", "PI3K delta (Homo sapiens, UniProt O00329)", "C’"),
    ("CC(C)(Cc1ccccc1-c1ccccc1F)Nc1nc(N2CCOCC2)nc(-n2c(C(F)F)nc3ccccc32)n1", "PI3K delta (Homo sapiens, UniProt O00329)", "A’"),
]

β/δ ratio measured on COc1cc(CC(C)(C)Nc2nc(N3CCOCC3)nc(-n3c(C(F)F)nc4ccccc43)n2)ccc1F = C’

β/δ ratio measured on COc1cc(-c2ccccc2CC(C)(C)Nc2nc(N3CCOCC3)nc(-n3c(C(F)F)nc4ccccc43)n2)ccn1 = A’

====

- MEASURED TARGET: PI3K delta (Homo sapiens, UniProt O00329)
- Construct: purchased Millipore, Billerica, MA, USA
- ASSAY METHOD TEXT: Luciferase-based luminescence assay (KinaseGlo), PI3K delta enzymatic activity
- Format: biochemical
- MEASUREMENT SETUP: ratio of enzymatic IC50 against PI3Kα over IC50 against PI3Kδ
READOUT NAME: α/δ ratio

# MOLECULE, α/δ ratio
measured = [
    ("CC(C)(Nc1nc(N2CCOCC2)nc(-n2c(C(F)F)nc3ccccc32)n1)c1ccc2ccccc2c1", "A’"),
    ("CN(C)CCCc1ccccc1CC(C)(C)Nc1nc(N2CCOCC2)nc(-n2c(C(F)F)nc3ccccc32)n1", "A’"),
    ("CC(C)(Cc1ccccc1C1CCNCC1)Nc1nc(N2CCOCC2)nc(-n2c(C(F)F)nc3ccccc32)n1", "A’"),
    ("COc1ccccc1CC(C)(C)Nc1nc(N2CCOCC2)nc(-n2c(C(F)F)nc3ccccc32)n1", "B’"),
    ("CC(C)(Nc1nc(N2CCOCC2)nc(-n2c(C(F)F)nc3ccccc32)n1)c1ccccc1", "C’"),
]

α/δ ratio measured on CC(C)(Cc1ccccc1C1CCNC1)Nc1nc(N2CCOCC2)nc(-n2c(C(F)F)nc3ccccc32)n1 (stereo not shown) = A’

α/δ ratio measured on CC[C@H](Nc1nc(N2CCOCC2)nc(-n2c(C(F)F)nc3ccccc32)n1)c1ccccc1 = C’

====

IC50 values for the molecules below.
- MEASURED TARGET: PI3Kβ (Homo sapiens, UniProt P42338)
- Construct: endogenous in cells
- Sequence (P42338 whole entry): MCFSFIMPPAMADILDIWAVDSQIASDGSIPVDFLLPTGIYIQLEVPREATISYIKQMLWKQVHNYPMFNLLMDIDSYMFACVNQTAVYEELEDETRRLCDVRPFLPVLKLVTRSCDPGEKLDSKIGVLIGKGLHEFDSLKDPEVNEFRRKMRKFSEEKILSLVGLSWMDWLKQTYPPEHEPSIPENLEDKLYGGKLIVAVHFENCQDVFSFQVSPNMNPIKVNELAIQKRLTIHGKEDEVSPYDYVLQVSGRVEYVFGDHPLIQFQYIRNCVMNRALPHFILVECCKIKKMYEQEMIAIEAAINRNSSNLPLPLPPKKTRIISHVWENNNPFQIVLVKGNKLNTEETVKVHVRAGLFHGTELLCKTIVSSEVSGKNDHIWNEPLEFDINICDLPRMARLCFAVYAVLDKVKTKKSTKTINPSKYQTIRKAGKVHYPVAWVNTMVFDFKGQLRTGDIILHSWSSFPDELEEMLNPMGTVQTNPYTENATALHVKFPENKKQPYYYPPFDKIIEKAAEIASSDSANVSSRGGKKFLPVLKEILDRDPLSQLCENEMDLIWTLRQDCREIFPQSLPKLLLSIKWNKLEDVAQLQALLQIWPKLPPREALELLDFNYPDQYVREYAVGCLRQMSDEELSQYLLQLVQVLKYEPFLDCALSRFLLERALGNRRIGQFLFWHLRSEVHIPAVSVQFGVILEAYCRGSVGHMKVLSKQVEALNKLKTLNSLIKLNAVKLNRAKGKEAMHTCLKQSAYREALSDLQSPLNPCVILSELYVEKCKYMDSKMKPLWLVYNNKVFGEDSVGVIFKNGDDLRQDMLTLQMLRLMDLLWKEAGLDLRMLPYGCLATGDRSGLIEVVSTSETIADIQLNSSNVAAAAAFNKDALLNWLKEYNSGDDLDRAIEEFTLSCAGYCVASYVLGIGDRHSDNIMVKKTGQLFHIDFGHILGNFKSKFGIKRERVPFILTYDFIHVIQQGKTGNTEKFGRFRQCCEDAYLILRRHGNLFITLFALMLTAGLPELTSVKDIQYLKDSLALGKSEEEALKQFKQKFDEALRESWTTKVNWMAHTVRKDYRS
- Sequence (P27986 whole entry partner): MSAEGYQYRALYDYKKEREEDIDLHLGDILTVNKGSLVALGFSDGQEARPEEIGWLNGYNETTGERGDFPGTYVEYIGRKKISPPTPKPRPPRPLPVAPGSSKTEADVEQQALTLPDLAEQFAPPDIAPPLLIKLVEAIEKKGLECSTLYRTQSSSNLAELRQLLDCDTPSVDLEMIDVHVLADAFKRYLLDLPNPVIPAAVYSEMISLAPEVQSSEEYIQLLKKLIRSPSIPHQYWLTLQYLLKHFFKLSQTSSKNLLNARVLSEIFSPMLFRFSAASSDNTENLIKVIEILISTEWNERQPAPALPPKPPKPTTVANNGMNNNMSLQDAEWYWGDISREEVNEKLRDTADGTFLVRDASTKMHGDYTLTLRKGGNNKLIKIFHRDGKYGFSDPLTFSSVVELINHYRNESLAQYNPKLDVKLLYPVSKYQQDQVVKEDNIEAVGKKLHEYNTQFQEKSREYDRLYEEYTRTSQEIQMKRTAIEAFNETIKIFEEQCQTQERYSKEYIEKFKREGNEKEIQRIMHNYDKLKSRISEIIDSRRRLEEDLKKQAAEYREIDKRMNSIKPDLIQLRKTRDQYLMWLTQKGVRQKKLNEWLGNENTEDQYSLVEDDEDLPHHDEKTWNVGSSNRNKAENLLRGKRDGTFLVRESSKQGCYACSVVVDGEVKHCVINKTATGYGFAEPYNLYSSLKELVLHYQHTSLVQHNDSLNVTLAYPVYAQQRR
- ASSAY METHOD TEXT: ELISA assay for PI3Kβ: in-cell ELISA, phosphorylation of AKT (Ser473) in PC-3 cells
- MEASUREMENT SETUP: cellular, pAKT (Ser473), PC-3 cells, LPA stimulation; read-out: IC50 p110β

Look over these answered cases.
# MOLECULE, IC50
rows = [
    ("COc1cc(-c2ccccc2CC(C)(C)Nc2nc(N3CCOCC3)nc(-n3c(C(F)F)nc4ccccc43)n2)ccn1 [Compound A41]", "0.1 to 0.2 µM"),
    ("CC(C)(Cc1ccccc1-c1cccc(CN2CCOCC2)c1)Nc1nc(N2CCOCC2)nc(-n2c(C(F)F)nc3ccccc32)n1 [Compound A65]", "≤ 0.1 µM"),
    ("Cc1cc(-c2ccccc2CC(C)(C)Nc2nc(N3CCOCC3)nc(-n3c(C(F)F)nc4ccccc43)n2)ccn1 [Compound A43]", "≤ 0.1 µM"),
    ("CC(C)(Cc1cccc2ccccc12)Nc1nc(N2CCOCC2)nc(-n2c(C(F)F)nc3ccccc32)n1 [Compound A27]", "≤ 0.1 µM"),
    ("Cc1ccccc1CC(C)(C)Nc1nc(N2CCOCC2)nc(-n2c(C(F)F)nc3ccccc32)n1 [Compound A18]", "≤ 0.1 µM"),
    ("Cn1cc(-c2ccccc2CC(C)(C)Nc2nc(N3CCOCC3)nc(-n3c(C(F)F)nc4ccccc43)n2)cn1 [Compound A45]", "≤ 0.1 µM"),
    ("CC(C)(Cc1ccccc1C1CCN(S(C)(=O)=O)CC1)Nc1nc(N2CCOCC2)nc(-n2c(C(F)F)nc3ccccc32)n1 [Compound A73]", "≤ 0.1 µM"),
    ("CC(C)(Cc1ccccc1C1CCNC1)Nc1nc(N2CCOCC2)nc(-n2c(C(F)F)nc3ccccc32)n1 (centres unmarked) [Compound A74]", "≤ 0.1 µM"),
]

IC50 measured on CC(C)(Cc1ccccc1-c1ccncc1)Nc1nc(N2CCOCC2)nc(-n2c(C(F)F)nc3ccccc32)n1 [Compound A33] = ≤ 0.1 µM

IC50 measured on CN1CCC(c2ccccc2CC(C)(C)Nc2nc(N3CCOCC3)nc(-n3c(C(F)F)nc4ccccc43)n2)CC1 [Compound A35] = ≤ 0.1 µM

IC50 measured on CC(C)(Cc1ccccc1-c1cccnc1F)Nc1nc(N2CCOCC2)nc(-n2c(C(F)F)nc3ccccc32)n1 [Compound A62] = ≤ 0.1 µM

IC50 measured on COc1ccc(-c2ccccc2CC(C)(C)Nc2nc(N3CCOCC3)nc(-n3c(C(F)F)nc4ccccc43)n2)cc1 [Compound A67] = 0.2 to 0.5 µM

IC50 measured on CC(C)(Cc1ccccc1F)Nc1nc(N2CCOCC2)nc(-n2c(C(F)F)nc3ccccc32)n1 [Compound A15] = ≤ 0.1 µM

IC50 measured on Cn1nccc1-c1ccccc1CC(C)(C)Nc1nc(N2CCOCC2)nc(-n2c(C(F)F)nc3ccccc32)n1 [Compound A46] = ≤ 0.1 µM

IC50 measured on CN1CCC(c2ccccc2CC(C)(C)Nc2nc(N3CCOCC3)nc(-n3c(C(F)F)nc4ccccc43)n2)C1 (centres unmarked) [Compound A75] = ≤ 0.1 µM

IC50 measured on CC(C)(Cc1ccc(F)cc1)Nc1nc(N2CCOCC2)nc(-n2c(C(F)F)nc3ccccc32)n1 [Compound A22] = ≤ 0.1 µM

====

- MEASURED TARGET: PI3K delta (Homo sapiens, UniProt O00329)
- Construct: purchased Millipore, Billerica, MA, USA
- ASSAY METHOD TEXT: Luciferase-based luminescence assay (KinaseGlo), PI3K delta enzymatic activity
- Assay type: biochemical
- MEASUREMENT SETUP: ratio of enzymatic IC50 values, Table 1
- Description: PI3K catalyzes the conversion of phosphatidylinositol-4,5-bisphosphate (PIP2) and ATP to phosphatidylinositol-3,4,5-trisphosphate (PIP3) and ADP. […] PI3K alpha and PI3K delta enzymatic activity was determined by measuring the amount of ATP consumed following the kinase reaction using a luciferase-based luminescence assay (KinaseGlo®, Promega Corp., Madison, WI, USA). […] IC50 values were determined by curve fitting using Graphpad Prism software (Graphpad Software, La Jolla, CA, USA).
READOUT NAME: γ/δ ratio

Look over these answered cases.
# MOL, γ/δ ratio
records = [
    ("Cc1ccccc1CC(C)(C)Nc1nc(N2CCOCC2)nc(-n2c(C(F)F)nc3ccccc32)n1", "B’"),
    ("CC(C)(Cc1cccc(Cl)c1)Nc1nc(N2CCOCC2)nc(-n2c(C(F)F)nc3ccccc32)n1", "C’"),
    ("CC(C)(Nc1nc(N2CCOCC2)nc(-n2c(C(F)F)nc3ccccc32)n1)C1(c2ccccc2)CC1", "D’"),
    ("CC(C)(Cc1cccc2ccccc12)Nc1nc(N2CCOCC2)nc(-n2c(C(F)F)nc3ccccc32)n1", "D’"),
    ("CC(C)(Cc1ccccc1C1CCNCC1)Nc1nc(N2CCOCC2)nc(-n2c(C(F)F)nc3ccccc32)n1", "A’"),
]

γ/δ ratio measured on COc1ccc(CC(C)(C)Nc2nc(N3CCOCC3)nc(-n3c(C(F)F)nc4ccccc43)n2)cc1 = D’

γ/δ ratio measured on CC(C)(Cc1c(F)cccc1F)Nc1nc(N2CCOCC2)nc(-n2c(C(F)F)nc3ccccc32)n1 = D’
